- Test system: NCI-H1650
- protocol: relative viability (nuclei count vs DMSO), 5 days (fraction); higher = more cells survive
- conditionSummary: first compound 0.1 µM
valueType: relative viability
Response field accepts a number only; no unit should be typed.

Example results:
>>> endpointresult("Cc1cn(-c2cc(NC(=O)c3ccc(C)c(Nc4nccc(-c5cccnc5)n4)c3)cc(C(F)(F)F)c2)cn1 [Nilotinib] + N=C(N)NC(=N)NCCc1ccccc1 [Phenformin] (partner 250 µM)")
0.307
>>> endpointresult("Cc1cn(-c2cc(NC(=O)c3ccc(C)c(Nc4nccc(-c5cccnc5)n4)c3)cc(C(F)(F)F)c2)cn1 [Nilotinib] + Cc1nc(Nc2ncc(C(=O)Nc3c(C)cccc3Cl)s2)cc(N2CCN(CCO)CC2)n1 [Dasatinib] (partner 0.075 µM)")
0.21
>>> endpointresult("Cc1cn(-c2cc(NC(=O)c3ccc(C)c(Nc4nccc(-c5cccnc5)n4)c3)cc(C(F)(F)F)c2)cn1 [Nilotinib] + Cc1cc(Nc2cc(N3CCN(C)CC3)nc(Sc3ccc(NC(=O)C4CC4)cc3)n2)n[nH]1 [Tozasertib] (partner 0.1 µM)")
0.256
>>> endpointresult("Cc1cn(-c2cc(NC(=O)c3ccc(C)c(Nc4nccc(-c5cccnc5)n4)c3)cc(C(F)(F)F)c2)cn1 [Nilotinib] + O=C(CCCCCCC(=O)Nc1ccccc1)NO [Vorinostat] (partner 1 µM)")
0.528

Proceeding to the next molecule to report its relative viability.
Check the records and state relative viability for Cc1cn(-c2cc(NC(=O)c3ccc(C)c(Nc4nccc(-c5cccnc5)n4)c3)cc(C(F)(F)F)c2)cn1 [Nilotinib] + CS(=O)(=O)N1CCN(Cc2cc3nc(-c4cccc5[nH]ncc45)nc(N4CCOCC4)c3s2)CC1 [Pictilisib] (partner 1 µM)
0.288
